// provenance: PubChem BioAssay AID1159580

assay: chemical genetic growth profiling, strain panel (AID 1159580);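 also: tested at 20 µM; growth read once vehicle control cultures reached saturation at 30 °C; 1 = growth at the plate median or of vehicle wells; lower values mean less growth of the strain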; details: S. cerevisiae deletion strains, growth OD, locus YNL006W, strain LST8, hits give low values
Screen size: about 5,500 compounds; about 2,000 (36%) were called active. Roughly 18% stayed inconclusive and do not appear here. The list shows a part of the results.
test readout: normalized growth
API doc: respond with a numeric literal and nothing else, no unit.

Data request: So what does the record say about normalized growth for Cc1nn(-c2cccc(Cl)c2)c2oc(=O)cc(C(F)(F)F)c12 ?
Data returned: 0.977

Data request: What about Clc1ccc(SCc2ccsc2-c2ncns2)cc1 ?
Data returned: 0.969

Data request: What about CCOC(=O)/C(C#N)=C(\Nc1ccc(C(=O)OCC)cc1)SC ?
Data returned: 0.98

Data request: What about O=C(Nc1cccc(Cl)c1)O/N=C1\CCCc2occc21 ?
Data returned: 0.939

Data request: What about Cc1ccc(-n2cccc2)c(NS(=O)(=O)c2ccc(-c3ccno3)s2)c1 ?
Data returned: 0.965

Data request: What about O=S(=O)(Nc1ccccc1Oc1ccccc1)c1ccc(-c2ccno2)s1 ?
Data returned: 0.973

====

test: chemical genetic growth profiling, strain panel (AID 1159580);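 also: tested at 20 µM; growth read once vehicle control cultures reached saturation at 30 °C; 1 = growth at the plate median or of vehicle wells; lower values mean less growth of the strain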; conditions: S. cerevisiae deletion strains, growth OD, locus YOL012C, strain htz1
The campaign covered roughly 5,500 compounds. About 2,000 (36%) were called active. Another 18% or so got no clear call; they are omitted. This is one part of the list.
Provide the recorded normalized growth for the entries that follow.
API doc: respond with a numeric literal and nothing else, no unit.

Data request: So what does the record say about normalized growth for CN(C)C1C(=O)C(C(N)=O)=C(O)C2(O)C(=O)C3=C(O)c4c(O)ccc(Cl)c4C(C)(O)C3CC12 (stereo unspecified) ?
Data returned: 0.811

Data request: What about CC(N=C(NC#N)Nc1ccncc1)C(C)(C)C (stereo unspecified) ?
Data returned: 1.52

Data request: What about CN(C)CCCN1c2ccccc2CCc2ccccc21 ?
Data returned: 0.613

Data request: What about COc1ccc(C2Sc3ccccc3N(CCN(C)C)C(=O)C2OC(C)=O)cc1 (stereo unspecified) ?
Data returned: 1.17

Data request: What about CN(C)CCCN1c2ccccc2Sc2ccccc21 ?
Data returned: 0.964

Data request: What about CN(C)CCCN1c2ccccc2Sc2ccc(Cl)cc21 ?
Data returned: 0.856

====

Provide the recorded normalized growth for the entries that follow.
assay: chemical genetic growth profiling, strain panel (AID 1159580);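 also: tested at 20 µM; growth read once vehicle control cultures reached saturation at 30 °C; 1 = growth at the plate median or of vehicle wells; lower values mean less growth of the strain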; conditions: S. cerevisiae deletion strains, growth OD, locus YMR058W, strain fet3, hits give low values
The whole screen tested about 5,500 compounds, of which about 2,000 (36%) were called active. Inconclusive results (about 18%) are left out. The list shows a part of the results.
API doc: respond with a numeric literal and nothing else, no unit.

Data request: So what does the record say about normalized growth for CC1(C)CC2C1CC[C@]1(C)CCC3C(C(=O)O)CC(=O)O[C@@]32C1 (stereo partly specified) ?
Data returned: 1.03

Data request: What about CS(=O)(=O)Nc1ccc([N+](=O)[O-])cc1Oc1ccccc1 ?
Data returned: 0.993

Data request: What about CC(C)CCCC(C)[C@H]1CCC2C3CC=C4CC(=O)CC[C@]4(C)C3CC[C@@]21C (stereo partly specified) ?
Data returned: 0.981

Data request: What about CC(N=C(NC#N)Nc1ccncc1)C(C)(C)C (stereo unspecified) ?
Data returned: 0.978

Data request: What about CC12CCC3C(CC3(C)C)C(C)(CCC1=O)O2 (stereo unspecified) ?
Data returned: 1.02

Data request: What about CN(C)[C@@H]1C(=O)C(C(N)=O)=C(O)[C@@]2(O)C(=O)C3=C(O)c4c(O)ccc(Cl)c4[C@@](C)(O)[C@H]3C[C@@H]12 ?
Data returned: 0.965

Data request: What about CC(C)CCCC(C)[C@H]1CCC2C3CC=C4C[C@@H](O)CC[C@]4(C)C3CC[C@@]21C (stereo partly specified) ?
Data returned: 0.972

Data request: What about CC(C)CCCC(C)C1CCC2C3CC(=O)[C@H]4C[C@@H](O)CC[C@]4(C)C3CC[C@]12C (stereo partly specified) ?
Data returned: 1.01

Data request: What about Cc1nc(N)cc(C[n+]2csc(CCO)c2C)n1 ?
Data returned: 0.969

Data request: What about COc1ccccc1OCC(O)CO (stereo unspecified) ?
Data returned: 1.02

Data request: What about CC(C)CCCC(C)C1CCC2C3C[C@@H](O)[C@@]4(O)C[C@@H](O)CC[C@]4(C)C3CC[C@]12C (stereo partly specified) ?
Data returned: 0.996
